Please provide measured cleavage of the SUMO fusion protein for the entries that follow.
study system: hsSUMO2-MBP fusion protein

Reported cleavage of the SUMO fusion protein of Ulp1 from S. cerevisiae (protein) LVPELNEKDDDQVQKALASRENTQLMNRDNIEITVRDFKTLAPRRWLNDTIIEFFMKYIEKSTPNTVAFNSFFYTNLSERGYQGVRRWMKRKKTQIDKLDKIFTPINLNQSHWALGIIDLKKKTIGYVDSLSNGPNAMSFAILTDLQKYVMEESKHTIGEDFDLIHLDCPQQPNGYDCGIYVCMNTLYGSADAPLDFDYKDAIRMRRFIAHLILTDALK : < 25 % cleavage

# protein bdSENP1^MutG (protein) PFVPLTDEDEDNVRHALGGRKSSETLSVHEASHIVITREILQCLNDKEWLNDEVINLYLELLKERELREPNKFLKCHFFNTFFYKKLINGGYDYKSVRRWTTVKLGYNLIDCDKIFVPIHKDVHWCLAVINIKEKKFQYLDSLGYMDMKALRILAKYLVDEVKDKSGKQIDVHAWKQEGVQNLPLQENGWDCGMFMLKYIDFYSRDMELVFGQKHMSYFRRRTAKEILDLKAG ; its cleavage of the SUMO fusion protein = 100 % cleavage

// cleavage of the SUMO fusion protein value for hsSENP2 (protein) EFPEITEEMEKEIKNVFRNGNQDEVLSEAFRLTITRKDIQTLNHLNWLNDEIINFYMNMLMERSKEKGLPSVHAFNTFFFTKLKTAGYQAVKRWTKKVDVFSVDILLVPIHLGVHWCLAVVDFRKKNITYYDSMGGINNEACRILLQYLKQESIDKKRKEFDTNGWQLFSKKSQEIPQQMNGSDCGMFACKYADCITKDRPINFTQQHMPYFRKRMVWEILHRKLL : 100 % cleavage

Recorded values, source patent US20210261937.
